# Tested on: Kidney A-498
# TEST_DESCRIPTION: CellTiter Glo cell viability assay
# Format: cell-based, human
# CONDITION_SUMMARY: Table 5A: 11 dilutions 3-0.00001 μM; average of experiments; read-out: IC50 average
# Method: 1.7*10^3 cells/well were seeded in quadruplicates in 96-well plate after plating. […] Cell growth was assessed on day 1, 3 and 5 after drug treatments using the CellTiter Glo Luminescence Cell Viability Assay (Promega) according to manufacturer's protocol. Thermo Scientific Varioskan LUX Multimode Microplate instrument was used for plate reading. Data are expressed as mean luminescence (arbitrary units) ±S.D. […]
EXPERIMENTAL_ENDPOINT: pIC50
In textbook form, pIC50 equals minus log to base ten of the concentration in mol/L.

Requested read-out: pIC50. Entry: CCOc1cc(O)cc(/C=C/c2ccc(O)c(OC)c2)c1CC=C(C)C [Compound 8]
6.37

###

# Tested on: Rhabomyosarcoma A-204
# TEST_DESCRIPTION: CellTiter Glo cell viability assay
# Type: cell-based
# CONDITION_SUMMARY: Homo sapiens, A204, 72 h; 3 Days of treatment; 18 2-fold dilutions 5-0.00003 μM; read-out: Average IC50
EXPERIMENTAL_ENDPOINT: pIC50
Scale explanation: pIC50 corresponds to minus log10 of a concentration expressed in moles per litre.

Item CCOc1cc(O)cc(/C=C/c2ccc(O)c(OC)c2)c1CC=C(C)C has what recorded pIC50?
7.51

###

Give measured IC50 for each item. Keep answers brief.
# Tested on: Rhabomyosarcoma TE 159.T
# TEST_DESCRIPTION: CellTiter Glo cell viability assay
# Format: cell-based, human
# CONDITION_SUMMARY: Homo sapiens, 72 h; 3 Days of treatment; 18 2-fold dilutions 5-0.00003 μM; read-out: Average IC50
Give just the numeric value; µM need not be written.

May I ask what IC50 has been recorded for CCOc1cc(O)cc(/C=C/c2ccc(O)c(OC)c2)c1CC=C(C)C [Compound 8] ?
0.0196

Another compound to check: COc1cc(/C=C/c2cc(O)cc(OC)c2CC=C(C)C)ccc1O [Compound 1]
0.147

###

# Test system: Kidney HTB-45
# TEST_DESCRIPTION: CellTiter Glo cell viability assay
# Assay type: cell-based, human
# CONDITION_SUMMARY: Homo sapiens, 72 h; 3 Days of treatment; 18 2-fold dilutions 5-0.00003 μM
EXPERIMENTAL_ENDPOINT: IC50 (nM)
Record the value in nM, omitting the unit from your answer.

For COc1cc(/C=C/c2cc(O)cc(OC)c2CC=C(C)C)ccc1O , what is its reported IC50?
1730

Item: CCOc1cc(O)cc(/C=C/c2ccc(O)c(OC)c2)c1CC=C(C)C
463

###

# Test system: Rhabomyosarcoma Hs 729
# TEST_DESCRIPTION: CellTiter Glo cell viability assay
# Format: cell-based, human
# CONDITION_SUMMARY: Homo sapiens, 72 h; 3 Days of treatment; 18 2-fold dilutions 5-0.00003 μM
Kindly state pIC50 for each of the entries shown.
In simple prose, pIC50 is minus the logarithm base ten of a concentration in moles per litre.

I'm curious: which pIC50 was measured for COc1cc(/C=C/c2cc(O)cc(OC)c2CC=C(C)C)ccc1O tested on Rhabomyosarcoma Hs 729?
6.42

And what about the molecule CCOc1cc(O)cc(/C=C/c2ccc(O)c(OC)c2)c1CC=C(C)C ?
7.19
